Source: the supplement of paper PMC6555819

- System: RARg:RXRa (NR concentration 270 nM, RXRa partner concentration 90 nM)
- Protocol Summary: PBM binding z-score (relative to random genomic background probes); higher = stronger binding; sequences stand for … in GC…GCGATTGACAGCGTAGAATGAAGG
Class assignment keyed on PBM binding z-score, ranges bucket A (below 0.06), bucket B (0.06 to below 3), bucket C (3 or more)

[[record]]
sequence_content = "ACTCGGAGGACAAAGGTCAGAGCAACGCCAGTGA"
tested_system = "RARg:RXRa (NR concentration 270 nM, RXRa partner concentration 90 nM)"
cat = "bucket C"

[[record]]
sequence_content = "CCGACTGGGACAAAGGTTACCATACTCAGTACGA"
tested_system = "RARg:RXRa (NR concentration 270 nM, RXRa partner concentration 90 nM)"
cat = "bucket B"


Prompt: Looking at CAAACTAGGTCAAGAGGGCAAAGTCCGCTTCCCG , which class would you pick?
Response: bucket C

Prompt: Looking at ATATGTAGGTTACATCTGGGTCATTCAGGCTATG , which class would you pick?
Response: bucket C

Prompt: Looking at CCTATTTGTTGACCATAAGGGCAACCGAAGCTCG , which class would you pick?
Response: bucket B

Prompt: Looking at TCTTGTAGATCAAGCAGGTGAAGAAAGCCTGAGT , which class would you pick?
Response: bucket A

Prompt: Looking at ACTCGGAGGACTAAGGTCAGAGCTACGCCAGTGA , which class would you pick?
Response: bucket B

Prompt: Looking at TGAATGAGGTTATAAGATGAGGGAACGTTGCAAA , which class would you pick?
Response: bucket B

Prompt: Looking at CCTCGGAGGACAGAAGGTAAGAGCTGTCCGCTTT , which class would you pick?
Response: bucket A

Prompt: Looking at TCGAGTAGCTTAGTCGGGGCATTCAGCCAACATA , which class would you pick?
Response: bucket A

Prompt: Looking at GCATATAGGTAATACAAGGAGAAAGTCCGATTGT , which class would you pick?
Response: bucket B

Prompt: Looking at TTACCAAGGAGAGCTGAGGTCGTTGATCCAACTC , which class would you pick?
Response: bucket A
